- tested-system: LiTR (Leishmania infantum)
- Construct: LiTR has been expressed and purified as reported previously; made in house
- method: LiTR enzymatic inhibition assay (NADPH oxidation, absorbance at 340 nm)
- Format: biochemical
- condition-set: read-out: LiTR Activity (% at 100 µM)
parameter-measured: activity at 100 µM (%)
Write the answer as a number in %, unit excluded.

Solved entries (count: 5):
[
  {
    "smiles-representation": "CCN(CC)CCOC(=O)c1ccc(N(CCC(=O)c2ccc(F)cc2)CCC(=O)c2ccc(F)cc2)cc1",
    "unit-annotation": "%",
    "activity at 100 µM": 75
  },
  {
    "smiles-representation": "CCN(CC)CCNC(=O)c1ccc(NCCC(=O)c2ccc(Br)cc2)cc1",
    "unit-annotation": "%",
    "activity at 100 µM": 87.3
  },
  {
    "smiles-representation": "CCN(CC)CCOC(=O)c1ccc(NCCC(=O)c2ccc(-c3ccccc3)cc2)cc1",
    "unit-annotation": "%",
    "activity at 100 µM": 55.4
  },
  {
    "smiles-representation": "CCN(CC)CCNC(=O)c1ccc(NCCC(=O)c2ccc(-c3ccc(Cl)cc3)cc2)cc1",
    "unit-annotation": "%",
    "activity at 100 µM": 59.4
  },
  {
    "smiles-representation": "CCN(CC)CCOC(=O)c1ccc(NCCC(=O)c2ccc(F)cc2)cc1",
    "unit-annotation": "%",
    "activity at 100 µM": 60.5
  }
]

Consider now this further molecule.
// lookup activity at 100 µM for CCN(CC)CCNC(=O)c1ccc(NCCC(=O)c2ccc(-c3ccccc3)cc2)cc1
68.4

###

- tested-system: human homolog glutathione reductase (Homo sapiens, UniProt P00390)
- Sequence (P00390 44-522): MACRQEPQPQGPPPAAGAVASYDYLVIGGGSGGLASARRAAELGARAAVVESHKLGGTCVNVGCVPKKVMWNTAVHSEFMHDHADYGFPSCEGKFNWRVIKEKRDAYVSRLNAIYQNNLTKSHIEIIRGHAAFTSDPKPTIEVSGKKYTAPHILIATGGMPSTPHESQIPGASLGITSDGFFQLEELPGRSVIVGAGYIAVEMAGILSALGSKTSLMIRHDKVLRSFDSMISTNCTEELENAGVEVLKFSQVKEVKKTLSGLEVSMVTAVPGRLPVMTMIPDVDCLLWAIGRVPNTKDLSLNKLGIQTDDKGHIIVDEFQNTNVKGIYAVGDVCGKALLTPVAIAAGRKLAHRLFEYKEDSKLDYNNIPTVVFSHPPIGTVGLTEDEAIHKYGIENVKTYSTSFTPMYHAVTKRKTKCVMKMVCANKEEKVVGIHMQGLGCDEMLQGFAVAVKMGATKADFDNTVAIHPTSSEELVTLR
pIC50: −log10 of the molar value.
parameter-measured: pIC50

Give human homolog glutathione reductase (Homo sapiens, UniProt P00390) pIC50 for CCN(CC)CCOC(=O)c1ccc(NCCC(=O)c2ccc(-c3ccc(Cl)cc3)cc2)cc1
< 3.82

###

Below is a list of entries, each paired with its recorded activity at 100 µM value.
- tested-system: LiTR (Leishmania infantum, UniProt A4HSF7)
- Construct: LiTR has been expressed and purified as reported previously; made in house
- Sequence (A4HSF7 1-491): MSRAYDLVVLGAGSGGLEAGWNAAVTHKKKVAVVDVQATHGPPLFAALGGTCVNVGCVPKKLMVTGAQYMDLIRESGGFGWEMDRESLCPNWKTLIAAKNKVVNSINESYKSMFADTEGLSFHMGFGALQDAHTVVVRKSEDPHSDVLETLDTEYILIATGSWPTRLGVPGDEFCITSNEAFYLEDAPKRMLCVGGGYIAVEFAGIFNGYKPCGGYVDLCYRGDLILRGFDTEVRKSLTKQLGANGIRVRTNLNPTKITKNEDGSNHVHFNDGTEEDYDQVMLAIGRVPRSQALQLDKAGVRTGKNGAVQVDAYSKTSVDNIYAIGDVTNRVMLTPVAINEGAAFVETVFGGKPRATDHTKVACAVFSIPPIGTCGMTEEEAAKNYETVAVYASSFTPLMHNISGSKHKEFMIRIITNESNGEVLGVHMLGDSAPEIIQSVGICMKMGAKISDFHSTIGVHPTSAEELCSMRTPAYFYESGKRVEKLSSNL
- method: LiTR enzymatic inhibition assay (NADPH oxidation, absorbance at 340 nm)
- Format: biochemical
- condition-set: read-out: LiTR Activity (% at 100 µM)
Write the numeric value and follow it with the unit.

[
  {
    "smiles-representation": "CCN(CC)CCOC(=O)c1ccc(NCCC(=O)c2ccc(Br)cc2)cc1",
    "activity at 100 µM": "73.8%"
  },
  {
    "smiles-representation": "CCN(CC)CCOC(=O)c1ccc(NCCC(=O)c2ccc(-c3ccc(Cl)cc3)cc2)cc1",
    "activity at 100 µM": "47%"
  }
]

// lookup activity at 100 µM for CCN(CC)CCOC(=O)c1ccc(NCCC(=O)c2ccccc2)cc1
73.8%

Origin of values: paper PMC9823735
